# Tgt: porcine ventricular cardiac S1 (Sus scrofa, UniProt P79293)
# Construct: tissue Pel-freez; host or cells: frozen porcine ventricular muscle; myosin extracted and digested with alpha-chymotrypsin
# Sequence (P79293 1-808 limits assumed): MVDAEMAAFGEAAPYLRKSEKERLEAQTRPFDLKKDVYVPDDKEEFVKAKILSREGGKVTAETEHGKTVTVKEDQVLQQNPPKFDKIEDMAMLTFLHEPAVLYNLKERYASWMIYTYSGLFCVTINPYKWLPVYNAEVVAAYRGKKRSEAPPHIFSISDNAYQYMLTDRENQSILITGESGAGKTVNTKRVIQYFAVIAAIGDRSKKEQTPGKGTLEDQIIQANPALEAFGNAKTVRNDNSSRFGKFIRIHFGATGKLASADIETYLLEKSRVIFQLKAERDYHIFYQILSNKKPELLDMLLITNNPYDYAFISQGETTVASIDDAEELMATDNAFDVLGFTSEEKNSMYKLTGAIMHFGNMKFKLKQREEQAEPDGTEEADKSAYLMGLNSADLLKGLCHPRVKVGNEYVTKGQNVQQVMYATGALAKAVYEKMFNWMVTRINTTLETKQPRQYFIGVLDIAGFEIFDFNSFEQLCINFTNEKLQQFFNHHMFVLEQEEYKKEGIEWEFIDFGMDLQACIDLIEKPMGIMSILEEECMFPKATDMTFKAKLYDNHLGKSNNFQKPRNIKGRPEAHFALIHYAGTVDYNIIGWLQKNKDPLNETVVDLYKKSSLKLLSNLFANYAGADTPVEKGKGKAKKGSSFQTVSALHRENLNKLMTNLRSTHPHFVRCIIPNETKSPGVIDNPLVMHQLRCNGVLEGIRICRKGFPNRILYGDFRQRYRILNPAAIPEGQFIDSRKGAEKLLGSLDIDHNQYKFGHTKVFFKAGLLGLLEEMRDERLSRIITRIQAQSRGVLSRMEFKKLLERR
# Assay comment: Actin-activated myosin S1 ATPase, cardiac
# Format: biochemical
pIC50: −log10 of the molar value.
Readout type: pIC50

smiles_structure=O=c1ccc(-c2cnc(OCC(F)(F)F)nc2)nn1Cc1cncc(F)c1 result="< 4.00"

---

# Tgt: 78 proteins, including GPCR, ion channel, kinases, nuclear hormone receptors, and transporters
# Assay comment: SAFETYscan E/IC50 ELECT off-target panel (whole panel)
# Run conditions: read-out: IC50 in all SAFETYscan assays
pIC50: −log10 of the molar value.
Readout type: pIC50

smiles_structure=O=c1ccc(-c2cnc(OCC(F)(F)F)nc2)nn1Cc1cncc(F)c1 result="< 5.00"

---

# Tgt: slow bovine masseter skeletal myofibrils (Bos taurus, UniProt Q9BE39)
# Sequence (Q9BE39 whole entry): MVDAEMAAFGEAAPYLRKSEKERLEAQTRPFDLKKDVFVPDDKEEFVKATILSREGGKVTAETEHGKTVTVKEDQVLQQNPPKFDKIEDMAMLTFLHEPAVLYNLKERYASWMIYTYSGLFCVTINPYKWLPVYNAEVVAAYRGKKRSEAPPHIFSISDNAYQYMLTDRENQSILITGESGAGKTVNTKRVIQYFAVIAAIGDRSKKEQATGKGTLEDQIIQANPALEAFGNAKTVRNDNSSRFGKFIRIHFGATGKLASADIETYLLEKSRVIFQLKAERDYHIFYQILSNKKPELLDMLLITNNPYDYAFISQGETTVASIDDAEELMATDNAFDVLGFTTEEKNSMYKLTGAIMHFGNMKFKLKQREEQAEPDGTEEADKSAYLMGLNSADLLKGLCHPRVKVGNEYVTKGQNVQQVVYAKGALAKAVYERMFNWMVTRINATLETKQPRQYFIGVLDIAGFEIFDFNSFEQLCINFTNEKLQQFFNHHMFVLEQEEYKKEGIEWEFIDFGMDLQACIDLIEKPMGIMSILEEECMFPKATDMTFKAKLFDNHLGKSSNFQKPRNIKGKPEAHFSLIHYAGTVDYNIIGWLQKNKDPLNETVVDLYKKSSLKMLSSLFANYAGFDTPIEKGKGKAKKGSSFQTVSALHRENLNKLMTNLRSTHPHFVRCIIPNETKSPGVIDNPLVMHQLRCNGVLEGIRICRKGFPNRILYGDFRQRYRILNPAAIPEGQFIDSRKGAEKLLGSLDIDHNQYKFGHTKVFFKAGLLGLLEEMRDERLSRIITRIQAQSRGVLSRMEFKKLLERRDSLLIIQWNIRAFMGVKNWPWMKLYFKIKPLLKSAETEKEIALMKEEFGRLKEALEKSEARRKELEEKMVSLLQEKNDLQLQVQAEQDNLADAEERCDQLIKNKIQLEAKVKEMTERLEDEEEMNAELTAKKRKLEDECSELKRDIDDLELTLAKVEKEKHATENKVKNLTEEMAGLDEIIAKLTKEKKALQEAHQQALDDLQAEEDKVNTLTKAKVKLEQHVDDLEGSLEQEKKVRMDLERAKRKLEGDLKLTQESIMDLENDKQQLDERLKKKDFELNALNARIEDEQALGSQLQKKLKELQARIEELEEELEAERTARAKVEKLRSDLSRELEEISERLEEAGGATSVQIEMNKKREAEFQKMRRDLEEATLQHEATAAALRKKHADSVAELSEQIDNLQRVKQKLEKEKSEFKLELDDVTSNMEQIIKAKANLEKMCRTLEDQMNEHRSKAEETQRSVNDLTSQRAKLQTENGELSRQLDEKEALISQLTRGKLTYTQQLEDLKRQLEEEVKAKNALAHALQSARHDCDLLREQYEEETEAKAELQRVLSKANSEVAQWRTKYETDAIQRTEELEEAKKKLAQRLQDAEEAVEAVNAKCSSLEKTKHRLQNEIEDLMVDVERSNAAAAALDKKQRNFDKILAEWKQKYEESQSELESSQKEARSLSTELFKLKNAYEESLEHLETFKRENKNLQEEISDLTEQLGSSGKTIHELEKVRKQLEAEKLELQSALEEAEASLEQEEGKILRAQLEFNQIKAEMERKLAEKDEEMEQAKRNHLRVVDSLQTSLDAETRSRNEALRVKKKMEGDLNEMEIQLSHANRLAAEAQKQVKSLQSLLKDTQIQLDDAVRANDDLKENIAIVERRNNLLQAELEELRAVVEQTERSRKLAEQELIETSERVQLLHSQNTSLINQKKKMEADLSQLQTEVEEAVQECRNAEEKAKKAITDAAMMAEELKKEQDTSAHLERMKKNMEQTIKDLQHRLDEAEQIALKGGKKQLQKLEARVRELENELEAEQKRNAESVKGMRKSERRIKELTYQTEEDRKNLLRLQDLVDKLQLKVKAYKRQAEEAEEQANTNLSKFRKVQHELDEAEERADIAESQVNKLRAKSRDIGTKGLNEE
# Sequence (P85100 whole entry partner): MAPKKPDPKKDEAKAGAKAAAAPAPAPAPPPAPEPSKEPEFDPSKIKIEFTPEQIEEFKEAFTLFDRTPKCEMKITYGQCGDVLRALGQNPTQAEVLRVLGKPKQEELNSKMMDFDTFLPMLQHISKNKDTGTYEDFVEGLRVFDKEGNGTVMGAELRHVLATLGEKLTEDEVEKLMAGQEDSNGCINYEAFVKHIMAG
# Sequence (Q3SZE5 whole entry partner): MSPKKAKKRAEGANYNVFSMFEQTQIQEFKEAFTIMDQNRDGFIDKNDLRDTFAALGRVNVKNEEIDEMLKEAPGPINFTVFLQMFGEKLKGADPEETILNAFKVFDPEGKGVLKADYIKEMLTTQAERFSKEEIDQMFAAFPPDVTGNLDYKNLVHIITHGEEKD
# Assay comment: Myofibril ATPase, bovine masseter
# Run conditions: 100% type I, at pCa50
pIC50: −log10 of the molar value.
Readout type: pIC50

smiles_structure=O=c1ccc(-c2cnc(OCC(F)(F)F)nc2)nn1Cc1cncc(F)c1 result="< 4.00"

---

# Tgt: smooth muscle myosin S1 isolated from chicken gizzard (Gallus gallus)
# Assay comment: Actin-activated myosin S1 ATPase, smooth muscle
pIC50: −log10 of the molar value.
Readout type: pIC50

compound="O=c1ccc(-c2cnc(OCC(F)(F)F)nc2)nn1Cc1cncc(F)c1 [EDG-5506]" result="< 4.00"

---

# Tgt: NAV1.5 (Homo sapiens)
# Construct: purchased Eurofins DiscoverX (KINOMEscan; SAFETYscan E/IC50 ELECT)
# Sequence (Q14524 whole entry): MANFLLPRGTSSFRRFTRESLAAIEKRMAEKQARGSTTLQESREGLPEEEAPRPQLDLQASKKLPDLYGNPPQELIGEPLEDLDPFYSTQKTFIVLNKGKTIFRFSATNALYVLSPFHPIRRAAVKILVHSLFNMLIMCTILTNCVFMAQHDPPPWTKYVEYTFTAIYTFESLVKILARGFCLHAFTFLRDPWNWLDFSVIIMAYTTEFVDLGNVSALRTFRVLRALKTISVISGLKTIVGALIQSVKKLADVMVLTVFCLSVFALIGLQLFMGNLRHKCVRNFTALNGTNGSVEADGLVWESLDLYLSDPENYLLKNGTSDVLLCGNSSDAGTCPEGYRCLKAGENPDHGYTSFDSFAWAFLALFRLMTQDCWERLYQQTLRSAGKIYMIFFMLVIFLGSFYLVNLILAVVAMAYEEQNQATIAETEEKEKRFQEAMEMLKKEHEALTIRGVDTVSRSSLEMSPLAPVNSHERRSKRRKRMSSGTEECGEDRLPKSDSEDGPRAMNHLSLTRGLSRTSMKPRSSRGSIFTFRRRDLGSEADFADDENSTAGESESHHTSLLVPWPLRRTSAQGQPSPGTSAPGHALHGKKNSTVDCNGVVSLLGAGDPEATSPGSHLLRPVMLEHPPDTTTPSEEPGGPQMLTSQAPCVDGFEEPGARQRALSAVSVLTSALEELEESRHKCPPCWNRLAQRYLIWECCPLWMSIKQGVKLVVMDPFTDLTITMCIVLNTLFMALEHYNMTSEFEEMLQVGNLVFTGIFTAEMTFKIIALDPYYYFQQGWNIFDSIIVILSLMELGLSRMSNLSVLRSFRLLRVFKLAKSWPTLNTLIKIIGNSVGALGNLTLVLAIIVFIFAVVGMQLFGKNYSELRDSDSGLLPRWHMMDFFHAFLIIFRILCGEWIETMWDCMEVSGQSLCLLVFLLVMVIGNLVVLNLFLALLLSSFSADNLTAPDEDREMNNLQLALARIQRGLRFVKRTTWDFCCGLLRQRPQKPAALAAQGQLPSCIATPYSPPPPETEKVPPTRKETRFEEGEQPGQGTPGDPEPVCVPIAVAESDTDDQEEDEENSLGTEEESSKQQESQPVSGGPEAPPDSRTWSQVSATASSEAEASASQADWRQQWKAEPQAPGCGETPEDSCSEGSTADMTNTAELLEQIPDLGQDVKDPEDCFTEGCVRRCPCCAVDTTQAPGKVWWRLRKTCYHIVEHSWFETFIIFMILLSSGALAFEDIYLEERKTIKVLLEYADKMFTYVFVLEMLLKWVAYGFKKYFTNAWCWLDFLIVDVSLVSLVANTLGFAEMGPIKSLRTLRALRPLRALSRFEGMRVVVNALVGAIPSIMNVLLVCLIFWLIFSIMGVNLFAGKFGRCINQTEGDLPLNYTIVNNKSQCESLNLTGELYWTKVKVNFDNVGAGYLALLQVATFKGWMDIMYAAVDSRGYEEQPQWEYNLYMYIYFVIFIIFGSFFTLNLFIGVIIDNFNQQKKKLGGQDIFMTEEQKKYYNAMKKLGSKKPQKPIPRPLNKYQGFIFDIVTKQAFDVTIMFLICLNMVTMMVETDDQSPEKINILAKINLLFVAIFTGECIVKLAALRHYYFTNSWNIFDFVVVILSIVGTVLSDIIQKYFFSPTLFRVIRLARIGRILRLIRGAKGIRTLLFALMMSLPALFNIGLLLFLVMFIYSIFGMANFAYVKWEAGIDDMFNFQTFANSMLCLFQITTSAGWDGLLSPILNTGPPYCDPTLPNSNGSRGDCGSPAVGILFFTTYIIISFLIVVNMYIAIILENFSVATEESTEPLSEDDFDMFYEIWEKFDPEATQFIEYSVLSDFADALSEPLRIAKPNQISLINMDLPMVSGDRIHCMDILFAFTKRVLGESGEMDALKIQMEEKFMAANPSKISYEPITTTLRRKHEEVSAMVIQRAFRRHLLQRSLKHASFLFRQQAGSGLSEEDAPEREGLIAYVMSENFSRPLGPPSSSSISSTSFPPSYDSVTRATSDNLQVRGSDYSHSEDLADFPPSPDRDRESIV
# Assay comment: SAFETYscan Ion Channel
# Assay type: cell-based
# Set-up: dose or concentration left out as unconfirmed
# Run conditions: read-out: Max Response (%) (Antagonist)
Readout type: Emax (%)

smiles_structure=O=c1ccc(-c2cnc(OCC(F)(F)F)nc2)nn1Cc1cncc(F)c1 readout_type=Emax quantitative_readout=2.32

---

# Tgt: bovine cardiac myofibrils (Bos taurus, UniProt Q9BE39)
# Assay comment: Myofibril ATPase, bovine cardiac
# Run conditions: bovine cardiac ventricle; at pCa50
Readout type: IC50

smiles_structure=O=c1ccc(-c2cnc(OCC(F)(F)F)nc2)nn1Cc1cncc(F)c1 tgt="bovine cardiac myofibrils (Bos taurus, UniProt Q9BE39)" result="> 100 µM"

---

# Tgt: CAV1.2 (Homo sapiens, UniProt Q13936)
# Construct: purchased Eurofins DiscoverX (KINOMEscan; SAFETYscan E/IC50 ELECT)
# Assay comment: SAFETYscan Ion Channel
# Assay type: cell-based
# Design: dose or concentration left out as unconfirmed
# Run conditions: read-out: Max Response (%) (Agonist)
Readout type: Emax (%)

smiles_structure=O=c1ccc(-c2cnc(OCC(F)(F)F)nc2)nn1Cc1cncc(F)c1 tgt="CAV1.2 (Homo sapiens, UniProt Q13936)" quantitative_readout=26.5

---

# Tgt: Neonatal Rat (P1) myofibrils
# Assay comment: Myofibril ATPase, neonatal rat
# Run conditions: neonatal rat (P1), 100% neonatal/embryonic MHC
Readout type: IC50 (nM)

smiles_structure=O=c1ccc(-c2cnc(OCC(F)(F)F)nc2)nn1Cc1cncc(F)c1 unit=nM quantitative_readout=200

---

# Tgt: mouse gastrocnemius myofibrils
# Assay comment: Myofibril ATPase, mouse gastrocnemius
# Run conditions: 21% IIa, 15% IIx, 56% IIb
Readout type: IC50 (nM)

smiles_structure=O=c1ccc(-c2cnc(OCC(F)(F)F)nc2)nn1Cc1cncc(F)c1 quantitative_readout=400
